target: GSK3BB (Homo sapiens); construct: purchased in-house DSF kinase panel (SGC-style construct names; the trailing letter is the construct ID); assay: DSF Tm panel; type: binding; conditions: 10 μM compound
Sequence (P49841 35-386): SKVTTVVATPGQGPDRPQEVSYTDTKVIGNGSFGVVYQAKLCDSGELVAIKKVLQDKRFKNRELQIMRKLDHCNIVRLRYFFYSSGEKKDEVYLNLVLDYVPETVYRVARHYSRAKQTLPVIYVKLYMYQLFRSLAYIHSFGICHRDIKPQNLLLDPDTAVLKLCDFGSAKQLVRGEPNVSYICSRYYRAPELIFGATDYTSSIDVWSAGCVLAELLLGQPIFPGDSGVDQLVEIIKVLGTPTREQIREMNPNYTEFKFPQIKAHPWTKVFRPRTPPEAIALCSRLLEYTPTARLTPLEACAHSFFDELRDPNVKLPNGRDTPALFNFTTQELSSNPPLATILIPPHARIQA
Measurement kind: ΔTm at 10 µM (°C)
Answer with a number only, understood to be in °C.

Provide measured ΔTm at 10 µM value, entry: O=C(NCc1ccc(C(F)(F)F)cc1)Nc1ccc2cc1OCCOCCNc1ccn3ncc-2c3n1 0.2

Provide measured ΔTm at 10 µM value, entry: O=C(NCc1ccc(Cl)cc1F)Nc1ccc2cc1OCCOCCNc1ccn3ncc-2c3n1 0.2

Provide measured ΔTm at 10 µM value, entry: COc1ccc(CNC(=O)Nc2ccc3cc2OCCOCCNc2ccn4ncc-3c4n2)cc1F 0.6

Provide measured ΔTm at 10 µM value, entry: COc1ccccc1CNC(=O)Nc1ccc2cc1OCCOCCNc1ccn3ncc-2c3n1 1.2

Provide measured ΔTm at 10 µM value, entry: Cc1cc(Cl)ccc1CNC(=O)Nc1ccc2cc1OCCOCCNc1ccn3ncc-2c3n1 0.4

Provide measured ΔTm at 10 µM value, entry: COc1ccc(CNC(=O)Nc2ccc3cc2OCCOCCNc2ccn4ncc-3c4n2)cc1 1

Provide measured ΔTm at 10 µM value, entry: O=C(NCc1ccccc1)Nc1ccc2cc1OCCOCCNc1ccn3ncc-2c3n1 1.1

Provide measured ΔTm at 10 µM value, entry: Cc1cc(Br)ccc1CNC(=O)Nc1ccc2cc1OCCOCCNc1ccn3ncc-2c3n1 -0.2

---

target: GPRK5A (Homo sapiens); construct: purchased in-house DSF kinase panel (SGC-style construct names; the trailing letter is the construct ID); experiment: DSF Tm panel; format: binding; conditions: 10 μM compound
Sequence (P34947 186-514): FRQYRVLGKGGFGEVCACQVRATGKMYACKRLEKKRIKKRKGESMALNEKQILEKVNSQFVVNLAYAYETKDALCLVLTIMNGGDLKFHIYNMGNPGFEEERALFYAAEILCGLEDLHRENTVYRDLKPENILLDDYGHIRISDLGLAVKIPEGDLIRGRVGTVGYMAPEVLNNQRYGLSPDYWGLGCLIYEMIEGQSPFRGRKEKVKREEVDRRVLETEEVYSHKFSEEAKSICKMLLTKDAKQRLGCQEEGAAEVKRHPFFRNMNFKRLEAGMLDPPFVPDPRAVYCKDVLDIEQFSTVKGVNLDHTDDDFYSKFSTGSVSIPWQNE
For each entry below, report its ΔTm at 10 µM value.
Answer with a number only, understood to be in °C.

Provide measured ΔTm at 10 µM value, entry: COc1cccc(CNC(=O)Nc2ccc3cc2OCCOCCNc2ccn4ncc-3c4n2)c1 0.5

Provide measured ΔTm at 10 µM value, entry: COc1ccccc1CNC(=O)Nc1ccc2cc1OCCOCCNc1ccn3ncc-2c3n1 0.4

Provide measured ΔTm at 10 µM value, entry: O=C(NCc1ccc(C(F)(F)F)cc1)Nc1ccc2cc1OCCOCCNc1ccn3ncc-2c3n1 0.7

Provide measured ΔTm at 10 µM value, entry: Cc1cc(Cl)ccc1CNC(=O)Nc1ccc2cc1OCCOCCNc1ccn3ncc-2c3n1 0.8

Provide measured ΔTm at 10 µM value, entry: O=C(NCc1ccc(Cl)cc1F)Nc1ccc2cc1OCCOCCNc1ccn3ncc-2c3n1 1.4

Provide measured ΔTm at 10 µM value, entry: O=C(NCc1ccccc1)Nc1ccc2cc1OCCOCCNc1ccn3ncc-2c3n1 1.2

Provide measured ΔTm at 10 µM value, entry: O=C(NCc1cccc(Cl)c1)Nc1ccc2cc1OCCOCCNc1ccn3ncc-2c3n1 1.1

Provide measured ΔTm at 10 µM value, entry: O=C(NCc1ccc(Cl)cc1)Nc1ccc2cc1OCCOCCNc1ccn3ncc-2c3n1 1.5

Provide measured ΔTm at 10 µM value, entry: C[C@H](NC(=O)Nc1ccc2cc1OCCOCCNc1ccn3ncc-2c3n1)c1ccccc1 0.2

Provide measured ΔTm at 10 µM value, entry: COc1cc(CNC(=O)Nc2ccc3cc2OCCOCCNc2ccn4ncc-3c4n2)ccc1F 2.2

Provide measured ΔTm at 10 µM value, entry: CN1CCN(C(=O)Nc2ccc3cc2OCCOCCNc2ccn4ncc-3c4n2)CC1 0.8

Provide measured ΔTm at 10 µM value, entry: Cc1cc(Br)ccc1CNC(=O)Nc1ccc2cc1OCCOCCNc1ccn3ncc-2c3n1 0

Provide measured ΔTm at 10 µM value, entry: O=C(NCc1ccccc1Cl)Nc1ccc2cc1OCCOCCNc1ccn3ncc-2c3n1 1.3

Provide measured ΔTm at 10 µM value, entry: Cc1ccc(F)cc1CNC(=O)Nc1ccc2cc1OCCOCCNc1ccn3ncc-2c3n1 0.1
